For each of the molecules below, state its melting point.

GET /value?item= COC(=O)C1=C(C)N=C2SC(=NNc3ccccc3C(C)=O)C(=O)N2C1c1ccccc1 (centres unmarked) [Compound 10g] &field=melting point returns 199 to 202 °C

GET /value?item= COC(=O)C1=C(C)N=C2S/C(=N\Nc3ccc4ccccc4c3S(=O)(=O)O)C(=O)N2C1c1ccc(OC)cc1 (centres unmarked) [Compound 12f] &field=melting point returns 271 to 273 °C

GET /value?item= COC(=O)C1=C(C)N=C2SC(=NNc3cccc(C(=O)OC)c3)C(=O)N2C1c1ccccc1 (centres unmarked) [Compound 10n] &field=melting point returns 214 to 216 °C

GET /value?item= COC(=O)C1=C(C)N=C2SC(=NNc3cccc([N+](=O)[O-])c3)C(=O)N2C1c1ccccc1 (centres unmarked) [Compound 10l] &field=melting point returns 250 to 252 °C

GET /value?item= COC(=O)C1=C(C)N=C2SC(=NNc3ccccc3C(=O)OC)C(=O)N2C1c1ccc(OC)c(OC)c1OC (centres unmarked) [Compound 11h] &field=melting point returns 200 to 202 °C

GET /value?item= COC(=O)C1=C(C)N=C2SC(=NNc3ccccc3C(C)=O)C(=O)N2C1c1ccc(OC)cc1 (centres unmarked) [Compound 12a] &field=melting point returns 199 to 201 °C

GET /value?item= COC(=O)C1=C(C)N=C2SC(=NNc3cccc(C(=O)OC)c3)C(=O)N2C1c1ccc(OC)c(OC)c1OC (centres unmarked) [Compound 11j] &field=melting point returns 213 to 215 °C

GET /value?item= COC(=O)C1=C(C)N=C2SC(=NNc3ccccc3O)C(=O)N2C1c1ccccc1 (centres unmarked) [Compound 10a] &field=melting point returns 227 to 229 °C

GET /value?item= COC(=O)C1=C(C)N=C2S/C(=N\Nc3ccccc3S(=O)(=O)O)C(=O)N2C1c1ccccc1 (centres unmarked) [Compound 10k] &field=melting point returns 262 to 266 °C

GET /value?item= COC(=O)C1=C(C)N=C2SC(=NNc3cc(OC)c(OC)c(OC)c3)C(=O)N2C1c1ccccc1 (centres unmarked) [Compound 10c] &field=melting point returns 211 to 213 °C

GET /value?item= COC(=O)C1=C(C)N=C2SC(=NNc3ccccc3C(C)=O)C(=O)N2C1c1ccc(OC)c(OC)c1OC (centres unmarked) [Compound 11i] &field=melting point returns 205 to 208 °C

GET /value?item= COC(=O)C1=C(C)N=C2SC(=NNc3ccc(OC)cc3S(=O)(=O)O)C(=O)N2C1c1ccc(OC)c(OC)c1OC (centres unmarked) [Compound 11f] &field=melting point returns 244 to 246 °C

GET /value?item= COC(=O)C1=C(C)N=C2S/C(=N\Nc3ccc4ccccc4c3S(=O)(=O)O)C(=O)N2C1c1ccccc1 (centres unmarked) [Compound 10f] &field=melting point returns 289 to 293 °C

GET /value?item= COC(=O)C1=C(C)N=C2SC(=NNc3ccc(OC)cc3S(=O)(=O)O)C(=O)N2C1c1ccccc1 (centres unmarked) [Compound 10e] &field=melting point returns 247 to 249 °C

----------
For each of the compounds below, state its pIC50.
- target: HIV-1 RT-associated RNase H (Human immunodeficiency virus type 1 group M subtype B, UniProt P03366)
- Construct: His-tagged p66/p51 HIV-1 RT group M subtype B; His tag
- method.summary: RNase H polymerase-independent cleavage assay
- test.settings: IC50, compound concentration required to reduce HIV-1 RT-associated RNase H activity by 50%, recombinant HIV-1 wt RT, hybrid RNA/DNA substrate, 37 °C, 1 hour
FYI, pIC50 means -log10 of a concentration in mol per litre.

GET /value?item= COC(=O)C1=C(C)N=C2SC(=NNc3cccc(C(C)=O)c3)C(=O)N2C1c1ccccc1 (centres unmarked) [Compound 10m] &field=pIC50 returns 4.74

GET /value?item= COC(=O)C1=C(C)N=C2SC(=NNc3cccc(C(=O)OC)c3)C(=O)N2C1c1ccc(OC)cc1 (centres unmarked) [Compound 12c] &field=pIC50 returns 5.33

GET /value?item= COC(=O)C1=C(C)N=C2SC(=NNc3ccccc3C(=O)OC)C(=O)N2C1c1ccc(OC)c(OC)c1OC (centres unmarked) [Compound 11h] &field=pIC50 returns 5.00

GET /value?item= COC(=O)C1=C(C)N=C2SC(=NNc3ccccc3C(C)=O)C(=O)N2C1c1ccccc1 (centres unmarked) [Compound 10g] &field=pIC50 returns 5.05

GET /value?item= COC(=O)C1=C(C)N=C2S/C(=N\Nc3ccc4ccccc4c3S(=O)(=O)O)C(=O)N2C1c1ccc(OC)cc1 (centres unmarked) [Compound 12f] &field=pIC50 returns 5.48

----------
For each of the molecules below, state its melting point.

GET /value?item= COC(=O)C1=C(C)N=C2SC(=NNc3cccc(C(C)=O)c3)C(=O)N2C1c1ccc(OC)c(OC)c1OC (stereo not shown) [Compound 11k] &field=melting point returns 216 to 219 °C

GET /value?item= COC(=O)C1=C(C)N=C2SC(=NNc3cccc([N+](=O)[O-])c3)C(=O)N2C1c1ccc(OC)c(OC)c1OC (stereo not shown) [Compound 11d] &field=melting point returns 236 to 238 °C

GET /value?item= COC(=O)C1=C(C)N=C2SC(=NNc3ccc(OC)c(OC)c3)C(=O)N2C1c1ccccc1 (stereo not shown) [Compound 10h] &field=melting point returns 204 to 206 °C

GET /value?item= COC(=O)C1=C(C)N=C2SC(=NNc3cccc(C(=O)OC)c3)C(=O)N2C1c1ccc(OC)cc1 (stereo not shown) [Compound 12c] &field=melting point returns 209 to 211 °C

GET /value?item= COC(=O)C1=C(C)N=C2SC(=NNc3cccc(C(C)=O)c3)C(=O)N2C1c1ccccc1 (stereo not shown) [Compound 10m] &field=melting point returns 213 to 216 °C

GET /value?item= COC(=O)C1=C(C)N=C2SC(=NNc3cc(OC)c(OC)c(OC)c3)C(=O)N2C1c1ccc(OC)cc1 (stereo not shown) [Compound 12e] &field=melting point returns 204 to 206 °C

GET /value?item= COC(=O)C1=C(C)N=C2SC(=NNc3ccccc3OC)C(=O)N2C1c1ccccc1 (stereo not shown) [Compound 10i] &field=melting point returns 189 to 192 °C

----------
For each of the compounds below, state its remaining activity at 100 µM.
- target: HIV-1 RT-associated RNase H (Human immunodeficiency virus type 1 group M subtype B)
- Construct: His-tagged p66/p51 HIV-1 RT group M subtype B; His tag; made in house; host or cells: Escherichia coli strain M15 (plasmid p6HRT-prot)
- method.summary: RNase H polymerase-independent cleavage assay
- Format: biochemical
- test.settings: read-out: Percentage of the control activity measured at the indicated compound concentration
- Protocol: The Ar^1 and Ar^2 aromatic segments of the molecule also approach the protein surface, through hydrophobic interactions. These findings provide important information for further structural optimization. All these newly designed thiazolone[3,2-a]pyrimidine derivatives were evaluated for their inhibitory activity against HIV RT-associated RNase H, using the diketo acid RDS1643 as positive control. […]
Give your result in % as a bare value.

GET /value?item= COC(=O)C1=C(C)N=C2SC(=NNc3ccc(OC)cc3S(=O)(=O)O)C(=O)N2C1c1ccc(OC)c(OC)c1OC (stereo not shown) [Compound 11f] &field=remaining activity at 100 µM returns 61

GET /value?item= COC(=O)C1=C(C)N=C2SC(=NNc3ccccc3S(=O)(=O)O)C(=O)N2C1c1ccc(OC)c(OC)c1OC (stereo not shown) [Compound 11e] &field=remaining activity at 100 µM returns 97

GET /value?item= COC(=O)C1=C(C)N=C2SC(=NNc3ccccc3C(C)=O)C(=O)N2C1c1ccc(OC)c(OC)c1OC (stereo not shown) [Compound 11i] &field=remaining activity at 100 µM returns 100

GET /value?item= COC(=O)C1=C(C)N=C2S/C(=N\Nc3ccccc3S(=O)(=O)O)C(=O)N2C1c1ccccc1 (stereo not shown) [Compound 10k] &field=remaining activity at 100 µM returns 85

----------
- target: HIV-1 RT-associated RNase H (Human immunodeficiency virus type 1 group M subtype B, UniProt P03366)
- Construct: His-tagged p66/p51 HIV-1 RT group M subtype B; His tag
- method.summary: RNase H polymerase-independent cleavage assay
- test.settings: IC50, compound concentration required to reduce HIV-1 RT-associated RNase H activity by 50%, recombinant HIV-1 wt RT, hybrid RNA/DNA substrate, 37 °C, 1 hour
reported.property: IC50

GET /value?item= COC(=O)C1=C(C)N=C2SC(=NNc3cccc(C(=O)OC)c3)C(=O)N2C1c1ccccc1 (stereo not shown) [Compound 10n] &field=IC50 returns 7.03 µM

GET /value?item= COC(=O)C1=C(C)N=C2SC(=NNc3cccc([N+](=O)[O-])c3)C(=O)N2C1c1ccccc1 (stereo not shown) [Compound 10l] &field=IC50 returns 6.41 µM

GET /value?item= COC(=O)C1=C(C)N=C2SC(=NNc3ccc(OC)cc3S(=O)(=O)O)C(=O)N2C1c1ccc(OC)c(OC)c1OC (stereo not shown) [Compound 11f] &field=IC50 returns > 100 µM

GET /value?item= COC(=O)C1=C(C)N=C2S/C(=N\Nc3ccccc3C(=O)OC)C(=O)N2C1c1ccccc1 (stereo not shown) [Compound 10d] &field=IC50 returns 8.27 µM

GET /value?item= COC(=O)C1=C(C)N=C2S/C(=N\Nc3ccc4ccccc4c3S(=O)(=O)O)C(=O)N2C1c1ccccc1 (stereo not shown) [Compound 10f] &field=IC50 returns 7.04 µM

GET /value?item= COC(=O)C1=C(C)N=C2SC(=NNc3ccccc3O)C(=O)N2C1c1ccccc1 (stereo not shown) [Compound 10a] &field=IC50 returns 18.2 µM

GET /value?item= COC(=O)C1=C(C)N=C2SC(=NNc3ccccc3OC)C(=O)N2C1c1ccccc1 (stereo not shown) [Compound 10i] &field=IC50 returns 8.32 µM
